TARGET: UniProt P03372
Sequence (P03372 1-595): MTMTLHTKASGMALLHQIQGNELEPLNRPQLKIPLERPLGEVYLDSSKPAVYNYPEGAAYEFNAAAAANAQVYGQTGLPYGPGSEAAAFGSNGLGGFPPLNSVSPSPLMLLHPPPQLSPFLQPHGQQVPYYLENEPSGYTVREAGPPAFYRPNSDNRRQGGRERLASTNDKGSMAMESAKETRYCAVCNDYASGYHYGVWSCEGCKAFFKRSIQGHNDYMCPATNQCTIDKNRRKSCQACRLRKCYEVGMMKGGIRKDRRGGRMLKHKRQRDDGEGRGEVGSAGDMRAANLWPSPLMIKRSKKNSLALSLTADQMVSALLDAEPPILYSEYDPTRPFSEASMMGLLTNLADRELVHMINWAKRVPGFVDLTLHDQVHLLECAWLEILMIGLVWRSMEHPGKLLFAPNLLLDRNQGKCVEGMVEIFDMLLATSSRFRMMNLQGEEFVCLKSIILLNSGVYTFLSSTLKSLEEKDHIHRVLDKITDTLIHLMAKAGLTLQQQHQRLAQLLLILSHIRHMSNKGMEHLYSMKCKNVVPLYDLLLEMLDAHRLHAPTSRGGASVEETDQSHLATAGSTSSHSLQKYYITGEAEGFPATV
PROTOCOL SUMMARY: ERE luciferase reporter gene assay in T47D-KBluc cells (target engagement)
Assay type: cell-based
Set-up: T47D human breast cancer cells stably transfected with estrogen responsive element/promoter/luciferase reporter gene; host or cells: T47D-KBluc cells
COND: 10% FBS, 24 hours, Table 3 cereblon centric PROTACs, read-out: ER-α Luciferase IC50
RESULT TYPE: IC50 (nM)

INSERT INTO assay_data (compound, reported_relation, recorded_value) VALUES
  ('O=C1CCC(N2Cc3cc(N4CCN(CCCOc5ccc(Oc6c(-c7ccc(F)c(F)c7)sc7cc(O)ccc67)cc5)CC4)ccc3C2=O)C(=O)N1 (stereo not drawn)', '=', 2.4),
  ('O=C1CCC(N2Cc3cc(N4CCN(CC5CCN(c6ccc(Oc7c(-c8ccc(F)cc8)sc8cc(O)ccc78)cn6)CC5)CC4)ccc3C2=O)C(=O)N1 (stereo not drawn)', '=', 1.6),
  ('O=C1CCC(N2Cc3cc(N4CCN(CCCOc5ccc(Oc6c(-c7ccc(C(F)(F)F)cc7)sc7cc(O)ccc67)cc5)CC4)ccc3C2=O)C(=O)N1 (stereo not drawn)', '=', 11.4),
  ('O=C1CCC(N2Cc3c(cc(F)c(N4CCN(C5CCN(CCOc6ccc(Oc7c(-c8ccc(C(F)(F)F)cc8)sc8cc(O)ccc78)cc6)CC5)CC4)c3F)C2=O)C(=O)N1 (stereo not drawn)', '=', 4.7),
  ('O=C1CCC(N2C(=O)c3ccc(N4CCN(CCOCc5ccc(Oc6c(-c7ccc(Br)cc7)sc7cc(O)ccc67)cc5)CC4)cc3C2=O)C(=O)N1 (stereo not drawn)', '=', 4.8),
  ('O=C1CCC(N2Cc3cc(N4CCN(CCCOc5ccc(Oc6c(-c7ccc(OC(F)(F)F)cc7)sc7cc(O)ccc67)cc5)CC4)ccc3C2=O)C(=O)N1 (stereo not drawn)', '=', 7.5),
  ('O=C1CCC(N2C(=O)c3ccc(N4CCN(CC5CCN(c6ccc(Oc7c(-c8ccc(Br)cc8)sc8cc(O)ccc78)cc6)CC5)CC4)cc3C2=O)C(=O)N1 (stereo not drawn)', '=', 24.9),
  ('O=C1CCC(N2Cc3cc(N4CCN(CCCOc5ccc(Oc6c(-c7ccc(F)cc7)sc7cc(O)ccc67)cc5)CC4)ccc3C2=O)C(=O)N1 (stereo not drawn)', '=', 1.5),
  ('O=C1CCC(N2C(=O)c3ccc(N4CCN(C5CCN(CCOc6ccc(Oc7c(-c8ccc(Br)cc8)sc8cc(O)ccc78)cc6)CC5)CC4)cc3C2=O)C(=O)N1 (stereo not drawn)', '=', 2.5),
  ('O=C1CCC(N2C(=O)c3ccc(N4CCN(CCC5CN(CCOc6ccc(Oc7c(-c8ccc(Br)cc8)sc8cc(O)ccc78)cc6)C5)CC4)cc3C2=O)C(=O)N1 (stereo not drawn)', '>', 300),
  ('O=C1CCC(N2C(=O)c3ccc(OCCCOCCCOCCCCOc4ccc(Oc5c(-c6ccc(Br)cc6)sc6cc(O)ccc56)cc4)cc3C2=O)C(=O)N1 (stereo not drawn)', '=', 66.7),
  ('O=C1CCC(N2Cc3cc(N4CCN(CCCCc5ccc(Oc6c(-c7ccc(Br)cc7)sc7cc(O)ccc67)cc5)CC4)ccc3C2=O)C(=O)N1 (stereo not drawn)', '=', 5.3);

====

Below, each entry is listed with its recorded pIC50.
TARGET: ERα (Homo sapiens, UniProt P03372)
PROTOCOL SUMMARY: ERE luciferase reporter gene assay in T47D-KBluc cells (target engagement)
Format: cell-based
Parameters: T47D human breast cancer cells stably transfected with estrogen responsive element/promoter/luciferase reporter gene; host or cells: T47D-KBluc cells
COND: 10% FBS, 24 hours, Table 2 VHL centric PROTACs, read-out: IC50
pIC50: −log10 of the molar value.
RESULT TYPE: pIC50

INSERT INTO results (structure_string, result_type, reported_relation, recorded_value) VALUES
  ('COc1ccc2c(Oc3ccc(OCCN4CCN(CCOCC(=O)N[C@H](C(=O)N5C[C@H](O)C[C@H]5C(=O)NCc5ccc(-c6scnc6C)cc5)C(C)(C)C)CC4)cc3)c(-c3ccc(Br)cc3)sc2c1', 'pIC50', '<', 7.00),
  ('Cc1ncsc1-c1ccc(CNC(=O)[C@@H]2C[C@@H](O)CN2C(=O)[C@@H](NC(=O)COCCN2CCN(CCOc3ccc(Oc4c(-c5ccc(F)cc5)sc5cc(O)ccc45)cc3)CC2)C(C)(C)C)cc1', 'pIC50', '=', 9.40),
  ('Cc1ncsc1-c1ccc(CNC(=O)[C@@H]2C[C@@H](O)CN2C(=O)[C@@H](NC(=O)COCCOC2CN(CCOc3ccc(Oc4c(-c5ccc(F)cc5)sc5cc(O)ccc45)cc3)C2)C(C)(C)C)cc1', 'pIC50', '=', 8.48);

====

TARGET: UniProt P03372
PROTOCOL SUMMARY: ERE luciferase reporter gene assay in T47D-KBluc cells (target engagement)
Type: cell-based
Parameters: T47D human breast cancer cells stably transfected with estrogen responsive element/promoter/luciferase reporter gene; host or cells: T47D-KBluc cells
COND: 10% FBS, 24 hours, Table 2 VHL centric PROTACs, read-out: IC50
pIC50: −log10 of the molar value.
Param threshold (9) applies to pIC50; output T when value >= threshold, F when value < threshold.

INSERT INTO results (molecule, classification) VALUES
  ('Cc1ncoc1-c1ccc([C@H](C)NC(=O)[C@@H]2C[C@@H](O)CN2C(=O)[C@@H](NC(=O)COCCOCCOCCOc2ccc(Oc3c(-c4ccc(Cl)cc4)sc4cc(O)ccc34)cc2)C(C)(C)C)cc1', 'F'),
  ('Cc1ncsc1-c1ccc(CNC(=O)[C@@H]2C[C@@H](O)CN2C(=O)[C@@H](NC(=O)CCCN2CC3CN(CCOc4ccc(Oc5c(-c6ccc(F)cc6)sc6cc(O)ccc56)cc4)CC3C2)C(C)(C)C)cc1 (stereo partly shown)', 'F'),
  ('Cc1ncsc1-c1ccc(CNC(=O)[C@@H]2C[C@@H](O)CN2C(=O)[C@@H](NC(=O)COCCO[C@@H]2CCN(CCOc3ccc(Oc4c(-c5ccc(F)cc5)sc5cc(O)ccc45)cc3)C2)C(C)(C)C)cc1', 'F'),
  ('Cc1ncsc1-c1ccc([C@H](C)NC(=O)[C@@H]2C[C@@H](O)CN2C(=O)[C@@H](NC(=O)COCCOCCN2CCC(c3ccc(Oc4c(-c5ccc(F)cc5)sc5cc(O)ccc45)cc3)CC2)C(C)(C)C)cc1', 'T'),
  ('Cc1ncsc1-c1ccc(CNC(=O)[C@@H]2C[C@@H](O)CN2C(=O)[C@@H](NC(=O)COCCOCCn2ccc(-c3ccc(Oc4c(-c5ccc(F)cc5)sc5cc(O)ccc45)cc3)cc2=O)C(C)(C)C)cc1', 'F'),
  ('Cc1ncsc1-c1ccc(CNC(=O)[C@@H]2C[C@@H](O)CN2C(=O)[C@@H](NC(=O)COCCN2CCN(CCOc3ccc(Oc4c(-c5ccc(Br)cc5)sc5cc(O)ccc45)cc3)CC2)C(C)(C)C)cc1', 'F');

====

Measured Dmax values are reported for all entries that follow.
TARGET: ERα (Homo sapiens, UniProt P03372)
PROTOCOL SUMMARY: Estrogen receptor-alpha (ERα) degradation assay in MCF7 cells using In-Cell Western assay
Format: cell-based
Parameters: assessed for their activity in degrading ERα in MCF-7 cells via western blot; endogenous in cells; host or cells: MCF7 cells
COND: ER-alpha degradation in MCF7 cells, 5 days of incubation
RESULT TYPE: Dmax

INSERT INTO measurements (compound, recorded_value) VALUES
  ('O=C1CCC(N2Cc3cc(N4CCN(CCCOc5ccc(Oc6c(-c7ccc(OC(F)(F)F)cc7)sc7cc(O)ccc67)cc5)CC4)ccc3C2=O)C(=O)N1 (stereo not drawn) [Compound 217]', '50 to 75%'),
  ('O=C1CCC(N2C(=O)c3ccc(NCCCN4CCCN(CCOc5ccc(Oc6c(-c7ccc(Br)cc7)sc7cc(O)ccc67)cc5)CC4)cc3C2=O)C(=O)N1 (stereo not drawn) [Compound 178]', '> 75%'),
  ('O=C1CCC(N2C(=O)c3ccc(N4CCN(CCOCc5ccc(Oc6c(-c7ccc(Br)cc7)sc7cc(O)ccc67)cc5)CC4)cc3C2=O)C(=O)N1 (stereo not drawn) [Compound 225]', '< 50%'),
  ('COc1ccc2c(Oc3ccc(OCCN4CCN(CCCNc5ccc6c(c5)CN(C5CCC(=O)NC5=O)C6=O)CC4)cc3)c(-c3ccc(O)cc3)sc2c1 (stereo not drawn) [Compound 181]', '50 to 75%'),
  ('O=C1CCC(N2Cc3cc(CCCCN4CCCN(CCOc5ccc(Oc6c(-c7ccc(Br)cc7)sc7cc(O)ccc67)cc5)CC4)ccc3C2=O)C(=O)N1 (stereo not drawn) [Compound 199]', '50 to 75%'),
  ('O=C1CCC(N2Cc3cc(NCCCN4CCN(CCOc5ccc(Oc6c(-c7ccc(C(F)(F)F)cc7)sc7cc(O)ccc67)cc5)CC4)ccc3C2=O)C(=O)N1 (stereo not drawn) [Compound 179]', '50 to 75%');
